Reported values of pEC50 for individual entries
Biological target: T1, mouse GPNMB endogenously expressed on B16F10 cells (mouse, UniProt Q99P91 23-574)
T1 construct: whole, on cells; also called moGPNMB
T1 sequence (looked up): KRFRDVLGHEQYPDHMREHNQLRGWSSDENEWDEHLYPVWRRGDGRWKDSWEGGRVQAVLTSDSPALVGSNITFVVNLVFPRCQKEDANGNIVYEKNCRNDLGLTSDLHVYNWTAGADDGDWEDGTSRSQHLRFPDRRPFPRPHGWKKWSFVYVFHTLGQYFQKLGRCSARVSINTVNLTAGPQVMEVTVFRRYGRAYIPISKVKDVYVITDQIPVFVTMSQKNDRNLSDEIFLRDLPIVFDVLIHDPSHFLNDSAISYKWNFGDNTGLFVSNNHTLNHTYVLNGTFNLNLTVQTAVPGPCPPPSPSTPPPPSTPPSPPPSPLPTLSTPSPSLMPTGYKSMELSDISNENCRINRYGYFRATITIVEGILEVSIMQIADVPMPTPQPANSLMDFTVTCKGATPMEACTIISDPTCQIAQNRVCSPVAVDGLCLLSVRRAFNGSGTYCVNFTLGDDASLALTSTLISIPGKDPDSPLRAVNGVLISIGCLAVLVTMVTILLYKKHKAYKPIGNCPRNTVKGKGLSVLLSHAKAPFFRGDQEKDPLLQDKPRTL
Assay: FACS titration, B16F10 cells
Procedure: Cell-based binding measurements were also performed to measure the apparent affinities of anti-GPNMB antibodies of the present disclosure to cell-surface expressed GPNMB. […] After addition of fluorescently labeled secondary antibody and brief washing steps, MFI values as a function of titrated antibody concentration was recorded via FACS analysis. […]
Convention used: pEC50 is expressed as -log10 of the molar concentration.

# BINDER, pEC50
rows = [
    ("anti-GPNMB antibody GPN-38 (antibody, human IgG1, V domains shown, chimeric) VH: QVQLQQPGAELVRPGTSVRLSCKASGYTFTSYWIHWVKQRPGRGLEWIGVIDPSDSYTNYNQQFNVKATLTVDTSSSAAYMQLSSLTSEDSAVYYCARGLITAVNWYFDVWGTGTTVTVSS VL: DIQMTQSPASLSTSVGEIVTITCRASENIYSYLTWYQQKQGKSPQLLVYNAKTLAEGVPSRFSGSGSGTQFSLKINSLQPEDFGTYYCQHHYGTPLTFGSGTKLEIK", 8.27),
]

Please look at this binder and report its pEC50: anti-GPNMB antibody GPN-35 (antibody, human IgG1, V domains shown, chimeric) VH: EVQLVESGGGSVRPGRSLKLSCAAAGFTFSDYYMTWVRQAPTKGLEWVASINHDGGGTYYRDSVKGRFTISRDNARSSLYLQMDSLRSEDTGTYYCTTRAGWHWGQGVMVTVSS VL: DIQMTQSPASLSASLGETVSIECLASEDIYNYLTWYQQKPGKSPQVLIYSASGLQDGVPSRFSGSGSGRQYSLKINGLESEDAATYFCLQDSEYPLTFGSGTKLEIK
8.64

// Input: anti-GPNMB antibody GPN-41 (antibody, human IgG1, V domains shown, chimeric) VH: QLQLQQSGTEVVKPGASVKIPCKASGYAFSSYWMNWVKQRPGKGLEWIGQIYPGDGDTNDNGKFEGKATLTVDKSSNTAYIQLSSLTSEDSAVYFCARSPLHLRGSMDYWGQGTSVTVSS VL: SIVMTQTPKFLLVSAGDRVTITCKASQSVSNDVAWFQQKPGQSPELLIYSASNRYTGVPDRFTASGYGTDFTFTISAVQAEDLAVYFCQQNYYSPFTFGGGTRLEIK . Output its pEC50 only.
8.58
